assay: Plasma protein binding, Rapid Equilibrium Dialysis; type: in vitro ADME; conditions: read-out: Plasma protein binding % Fraction bound (converted)
Listing of recorded fraction unbound by entry.

- compound: "C=C(C)[C@@H]1CC[C@]2(C(=O)O)CC[C@]3(C)C(CCC4[C@@]5(C)C=C(c6ccoc6)C(=O)C(C)(C)C5CC[C@]43C)C12 (some centres unmarked) [Compound 11b]"
  fraction unbound: "~0.1"

Asked: Entry C=C(C)[C@@H]1CC[C@]2(C(=O)O)CC[C@]3(C)C(CCC4[C@@]5(C)C=C(c6ccco6)C(=O)C(C)(C)C5CC[C@]43C)C12 (some centres unmarked) [Compound 11a] has what fraction unbound?
Given back: ~0.1

----------
assay: MDCK-MDR1 permeability assay; type: in vitro ADME; conditions: dog, MDCK-MDR1
measurement_name: recovery (%)
Please reply with the bare figure in % and do not write the unit itself.

Asked: Requested read-out: recovery. Entry: C=C(C)[C@@H]1CC[C@]2(C(=O)O)CC[C@]3(C)C(CCC4[C@@]5(C)C=C(c6ccco6)C(=O)C(C)(C)C5CC[C@]43C)C12 (some centres unmarked) [Compound 11a]
Given back: 90.4

Asked: Please give the measured recovery for this compound: C=C(C)[C@@H]1CC[C@]2(C(=O)O)CC[C@]3(C)C(CCC4[C@@]5(C)C=C(c6ccoc6)C(=O)C(C)(C)C5CC[C@]43C)C12 (some centres unmarked) [Compound 11b]
Given back: 94.7

----------
In this section, each of the molecules is paired with its reported pIC50.
test system: Hh signaling (Gli Reporter-NIH3T3, Gli-responsive FLuc); test: Gli Reporter-NIH3T3 luciferase assay, mSHH or SAG induced; assay type: cell-based; details: SAG (SMO agonist) 4 nM after 2 h preincubation; mean ± SD, n=3; read-out: IC50 SAG stimulation 4 nM
Scale note: pIC50 = -log10(concentration in M).

- molecule: "C=C(C)[C@@H]1CC[C@]2(C(=O)O)CC[C@]3(C)C(CCC4[C@@]5(C)C=C(c6ccco6)C(=O)C(C)(C)C5CC[C@]43C)C12 (some centres unmarked) [Compound 11a]"
  observed_result: 5.42

Asked: Observed pIC50 on Hh signaling (Gli Reporter-NIH3T3, Gli-responsive FLuc) for C=C(C)[C@@H]1CC[C@]2(C(=O)O)CC[C@]3(C)C(CCC4[C@@]5(C)C=C(c6ccoc6)C(=O)C(C)(C)C5CC[C@]43C)C12 (some centres unmarked) [Compound 11b] , please.
Given back: 5.39

----------
Below, each entry is listed with its recorded recovery.
assay: Caco-2 permeability assay; assay type: in vitro ADME; conditions: human, Caco-2
Report as: number unit

- compound: "C=C(C)[C@@H]1CC[C@]2(C(=O)O)CC[C@]3(C)C(CCC4[C@@]5(C)C=C(c6ccoc6)C(=O)C(C)(C)C5CC[C@]43C)C12 (some centres unmarked) [Compound 11b]"
  recovery: "58.2%"

Note: attention shifts to another entry.
Asked: Fill in the blank: the reported recovery of C=C(C)[C@@H]1CC[C@]2(C(=O)O)CC[C@]3(C)C(CCC4[C@@]5(C)C=C(c6ccco6)C(=O)C(C)(C)C5CC[C@]43C)C12 (some centres unmarked) [Compound 11a] is ____.
Given back: 68.5%

----------
pIC50 values for the molecules below.
tested on: MRC-5 lung fibroblasts; assay: MTS cytotoxicity assay, 72 h, MRC-5 fibroblasts; type: cell-based, human; conditions: Homo sapiens, MRC5, 72 h, normal fibroblasts, Table 1
pIC50: −log10 of the molar value.

Worked examples, 5 molecules total:
- molecule: "C=C(C)[C@@H]1CC[C@]2(C(=O)O)CC[C@]3(C)C(CCC4[C@@]5(C)C=C(c6ccc7c(c6)OCCO7)C(=O)C(C)(C)C5CC[C@]43C)C12 (stereo partly drawn) [Compound 11j]"
  measurement_name: "pIC50"
  observed_result: 4.55
- molecule: "C=C(C)[C@@H]1CC[C@]2(C(=O)O)CC[C@]3(C)C(CCC4[C@@]5(C)C=C(c6cncc7ccccc67)C(=O)C(C)(C)C5CC[C@]43C)C12 (stereo partly drawn) [Compound 11l]"
  measurement_name: "pIC50"
  observed_result: "< 4.30"
- molecule: "CC1(C)C(=O)C(c2ccc3cn[nH]c3c2)=C[C@@]2(C)C1CC[C@]1(C)C2CCC2C3[C@H]4OC[C@@]3(CCC4(C)C)CC[C@]21C (stereo partly drawn)"
  measurement_name: "pIC50"
  observed_result: 4.48
- molecule: "CC1(C)C(=O)C(c2cncnc2)=C[C@@]2(C)C1CC[C@]1(C)C2CCC2C3[C@H]4OC[C@@]3(CCC4(C)C)CC[C@]21C (stereo partly drawn)"
  measurement_name: "pIC50"
  observed_result: "< 4.30"
- molecule: "CC1(C)C(=O)C(c2cccnc2)=C[C@@]2(C)C1CC[C@]1(C)C2CCC2C3[C@H]4OC[C@@]3(CCC4(C)C)CC[C@]21C (stereo partly drawn)"
  measurement_name: "pIC50"
  observed_result: "< 4.30"

Now look at this one.
Asked: For the molecule C=C(C)[C@@H]1CC[C@]2(C(=O)O)CC[C@]3(C)C(CCC4[C@@]5(C)C=C(c6cccnc6)C(=O)C(C)(C)C5CC[C@]43C)C12 (stereo partly drawn) [Compound 11g] , what pIC50 is on record?
Given back: < 4.30

----------
tested on: BJ human skin fibroblasts; test: MTS cytotoxicity assay, 72 h, BJ fibroblasts; format: cell-based; settings: Homo sapiens, Skin fibroblast, normal fibroblasts, Table 1
pIC50: −log10 of the molar value.
measurement_name: pIC50

Example entries and their recorded answers appear below.
- compound: "CC1(C)C(=O)C(c2ccc3cn[nH]c3c2)=C[C@@]2(C)C1CC[C@]1(C)C2CCC2C3[C@H]4OC[C@@]3(CCC4(C)C)CC[C@]21C (stereo partly drawn)"
  observed_result: 4.38
- compound: "CC1(C)C(=O)C(c2ccc3[nH]ccc3c2)=C[C@@]2(C)C1CC[C@]1(C)C2CCC2C3[C@H]4OC[C@@]3(CCC4(C)C)CC[C@]21C (stereo partly drawn)"
  observed_result: "< 4.30"
- compound: "CC1(C)C(=O)C(c2cncnc2)=C[C@@]2(C)C1CC[C@]1(C)C2CCC2C3[C@H]4OC[C@@]3(CCC4(C)C)CC[C@]21C (stereo partly drawn)"
  observed_result: "< 4.30"

Asked: Name the recorded pIC50 for C=C(C)[C@@H]1CC[C@]2(C(=O)O)CC[C@]3(C)C(CCC4[C@@]5(C)C=C(c6ccco6)C(=O)C(C)(C)C5CC[C@]43C)C12 (stereo partly drawn) [Compound 11a] .
Given back: 4.41

Asked: Need pIC50 of C=C(C)[C@@H]1CC[C@]2(C(=O)O)CC[C@]3(C)C(CCC4[C@@]5(C)C=C(c6cccnc6)C(=O)C(C)(C)C5CC[C@]43C)C12 (stereo partly drawn) [Compound 11g] , thanks.
Given back: < 4.30

Asked: Item CC1(C)C(=O)C(c2ccncc2)=C[C@@]2(C)C1CC[C@]1(C)C2CCC2C3[C@H]4OC[C@@]3(CCC4(C)C)CC[C@]21C (stereo partly drawn) has what recorded pIC50?
Given back: < 4.30

----------
assay: Caco-2 permeability assay; type: in vitro ADME; details: human, Caco-2; A–B; cm/s; read-out: Caco-2 Papp (×10^−6)
measurement_name: Papp A→B (×10⁻⁶ cm/s)
Answer format: numeric, ×10⁻⁶ cm/s implied, no suffix.

- molecule: "C=C(C)[C@@H]1CC[C@]2(C(=O)O)CC[C@]3(C)C(CCC4[C@@]5(C)C=C(c6ccoc6)C(=O)C(C)(C)C5CC[C@]43C)C12 (some centres unmarked) [Compound 11b]"
  unit_spec: "×10⁻⁶ cm/s"
  Papp A→B: 1.07

# evaluate next
Asked: Could you share which Papp A→B value was measured for C=C(C)[C@@H]1CC[C@]2(C(=O)O)CC[C@]3(C)C(CCC4[C@@]5(C)C=C(c6ccco6)C(=O)C(C)(C)C5CC[C@]43C)C12 (some centres unmarked) [Compound 11a] ?
Given back: 0.44

----------
Item-by-item account of IC50
system: HCT 116; test: MTS cytotoxicity assay, 72 h, HCT 116; type: cell-based; settings: Homo sapiens, HCT-116, 72 h, Table 1
Provide the reading as a plain figure in µM.

A selection of reference data follows.
- molecule: "C=C(C)[C@@H]1CC[C@]2(C(=O)O)CC[C@]3(C)C(CCC4[C@@]5(C)C=C(c6ccncc6)C(=O)C(C)(C)C5CC[C@]43C)C12 (stereo partly shown) [Compound 11h]"
  test_system: "HCT 116"
  unit_spec: "µM"
  IC50: 25
- molecule: "C=C(C)[C@@H]1CC[C@]2(C(=O)O)CC[C@]3(C)C(CCC4[C@@]5(C)C=C(c6cncc7ccccc67)C(=O)C(C)(C)C5CC[C@]43C)C12 (stereo partly shown) [Compound 11l]"
  test_system: "HCT 116"
  unit_spec: "µM"
  IC50: 19

Please look at the following molecule next.
Asked: Provide value of IC50 for this record tested with HCT 116: C=C(C)[C@@H]1CC[C@]2(C(=O)O)CC[C@]3(C)C(CCC4[C@@]5(C)C=C(c6ccoc6)C(=O)C(C)(C)C5CC[C@]43C)C12 (stereo partly shown) [Compound 11b]
Given back: 20
